Target: Glutamate receptor ionotropic, AMPA (Rattus norvegicus, UniProt P19490+P19491+P19492+P19493)
Assay: Inhibition of [3H]AMPA binding to rat brain membranes.
Assay type: cell membranes, Membrane
pIC50: −log10 of the molar value.
measured_parameter: pIC50

A = CC(C)Oc1noc(C(=O)O)c1CC(N)C(=O)O (stereo not drawn)
B = COc1noc(C(=O)O)c1CC(N)C(=O)O (stereo not drawn)
Inquiry: Which value of pIC50 is numerically greater: that of A or that of B ? Field: selected label. Fill in the label of the entry you choose.
Reply text: B
(B: 6.96, A: 5.26)

----------
Target: Glutamate receptor ionotropic, AMPA (Rattus norvegicus, UniProt P19490+P19491+P19492+P19493)
Experiment: Inhibition of [3H]AMPA binding to rat brain membranes.
Measured IC50, listed per entry for reference.

Consider the worked cases shown below.
compound="C=CCOc1noc(C(=O)O)c1CC(N)C(=O)O (stereo not drawn)" reported_value="7.2 µM"
compound="C/C=C/COc1noc(C(=O)O)c1CC(N)C(=O)O (stereo not drawn)" reported_value="> 100 µM"
compound="CCCCOc1noc(C(=O)O)c1CC(N)C(=O)O (stereo not drawn)" reported_value="> 100 µM"
compound="NC(Cc1c(OCc2ccccc2)noc1C(=O)O)C(=O)O (stereo not drawn)" reported_value="> 100 µM"
compound="CCOc1noc(-c2nc[nH]n2)c1CC(N)C(=O)O (stereo not drawn)" reported_value="> 100 µM"
compound="CCOc1noc(-c2nn[nH]n2)c1CC(N)C(=O)O (stereo not drawn)" reported_value="> 100 µM"
compound="CCCCCOc1noc(C(=O)O)c1CC(N)C(=O)O (stereo not drawn)" reported_value="> 100 µM"
compound=CCOc1noc(C(=O)O)c1C/N=c1\c(O)c(O)c1=N reported_value="> 100 µM"
compound="Cn1oc(C(=O)O)c(CC(N)C(=O)O)c1=O (stereo not drawn)" reported_value="> 100 µM"
compound="NC(Cc1c(O)noc1C(=O)O)C(=O)O (stereo not drawn)" reported_value="> 100 µM"

For reference, reported IC50 for NC(Cc1c(C(=O)O)on(Cc2ccccc2)c1=O)C(=O)O (stereo not drawn) stands at > 100 µM

For reference, reported IC50 for CCCOc1noc(C(=O)O)c1CC(N)C(=O)O (stereo not drawn) stands at 14 µM

For reference, reported IC50 for CCOc1noc(C(=O)O)c1CC(N)C(=O)O (stereo not drawn) stands at 1 µM
